Molecular target: 5-hydroxytryptamine receptor 7 (Homo sapiens, UniProt P34969)
Sequence (P34969 whole entry): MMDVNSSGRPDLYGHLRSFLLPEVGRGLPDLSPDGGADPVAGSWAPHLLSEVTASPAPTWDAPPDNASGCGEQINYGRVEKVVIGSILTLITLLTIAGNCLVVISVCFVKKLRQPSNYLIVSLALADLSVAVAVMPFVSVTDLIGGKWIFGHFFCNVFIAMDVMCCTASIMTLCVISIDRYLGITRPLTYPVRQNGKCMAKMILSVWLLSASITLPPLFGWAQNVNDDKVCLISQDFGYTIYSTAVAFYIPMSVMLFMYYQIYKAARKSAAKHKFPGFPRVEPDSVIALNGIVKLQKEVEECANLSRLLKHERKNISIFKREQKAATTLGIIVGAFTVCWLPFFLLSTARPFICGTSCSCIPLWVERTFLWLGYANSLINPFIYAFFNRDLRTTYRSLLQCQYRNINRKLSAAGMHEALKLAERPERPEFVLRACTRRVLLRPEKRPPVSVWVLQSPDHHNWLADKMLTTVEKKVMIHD
Test: Binding affinity to recombinant human 5HT7 receptor expressed in CHO cells by competitive binding assay
Assay type: cell-based
MEASUREMENT_TYPE: Kb (nM)

INSERT INTO measurements (smiles, result_unit, value_reported) VALUES
  ('COc1ccccc1N1CCN(CC[C@H]2CCCN2S(=O)(=O)c2ccc(F)cc2)CC1', 'nM', 4.8);

[I] CC1CCN(CC[C@H]2CCCN2S(=O)(=O)c2ccc(F)cc2)CC1
[II] COc1ccccc1N1CCN(CC[C@H]2CCCN2S(=O)(=O)c2ccccc2F)CC1
[III] CC1CCN(CC[C@H]2CCCN2S(=O)(=O)c2ccccc2F)CC1
**Query** Descending sort on Kb required. Hello, could you send the labels back in the order asked? Thank you.
**Result** I, III, II
